Ref: patent US20220096516A1

# System: LHPP gene
# Assay comment: High-throughput screening of saRNAs targeting LHPP promoter: LHPP mRNA by one-step RT-qPCR in Huh7 cells
# Type: cell-based, human
# Condition context: 10 nM saRNA, 72 hours, relative to control (Mock)
d = 2'-deoxy (DNA); r = 2'-OH (RNA)
Examples of substances with documented Fold of changes in relative LHPP mRNA expression level (log2) follow.
Endpoint: Fold of changes in relative LHPP mRNA expression level (log2)

{"columns": ["Substance", "Unit annotation", "Reported result"],
 "data": [
  ["RAG7-853: saRNA duplex; sense AACUUGAAAGGUUCCGAGGTT (SEQ ID NO: 146), antisense CCUCGGAACCUUUCAAGUUTT (SEQ ID NO: 310) (sugars from the 5' end r19 d2, backbone not given here)", "log2", 0.18],
  ["RAG7-170: saRNA duplex; sense UUUGACCUUUCUUAGGGACTT (SEQ ID NO: 132), antisense GUCCCUAAGAAAGGUCAAATT (SEQ ID NO: 296) (sugars from the 5' end r19 d2, backbone not given here)", "log2", 0.21],
  ["RAG7-898: saRNA duplex; sense AAGCUAUGUUGGACCAGAATT (SEQ ID NO: 59), antisense UUCUGGUCCAACAUAGCUUTT (SEQ ID NO: 223) (sugars from the 5' end r19 d2, backbone not given here)", "log2", 0.43],
  ["RAG7-844: saRNA duplex; sense GGUUCCGAGGGGCCAUUGATT (SEQ ID NO: 129), antisense UCAAUGGCCCCUCGGAACCTT (SEQ ID NO: 293) (sugars from the 5' end r19 d2, backbone not given here)", "log2", 0.22],
  ["RAG7-106: saRNA duplex; sense GAAAGCUUCCGAAAAGGACTT (SEQ ID NO: 150), antisense GUCCUUUUCGGAAGCUUUCTT (SEQ ID NO: 314) (sugars from the 5' end r19 d2, backbone not given here)", "log2", 0.17],
  ["RAG7-122: saRNA duplex; sense GCUGAUCUCCUGGGAAGAATT (SEQ ID NO: 103), antisense UUCUUCCCAGGAGAUCAGCTT (SEQ ID NO: 267) (sugars from the 5' end r19 d2, backbone not given here)", "log2", 0.28],
  ["RAG7-186: saRNA duplex; sense CUUGUCUCAAUUUGCCUUUTT (SEQ ID NO: 78), antisense AAAGGCAAAUUGAGACAAGTT (SEQ ID NO: 242) (sugars from the 5' end r19 d2, backbone not given here)", "log2", 0.35],
  ["RAG7-679: saRNA duplex; sense UCAUCUAUGCAGGGCUGUUTT (SEQ ID NO: 107), antisense AACAGCCCUGCAUAGAUGATT (SEQ ID NO: 271) (sugars from the 5' end r19 d2, backbone not given here)", "log2", 0.27],
  ["RAG7-194: saRNA duplex; sense GGUGCCUUCUUGUCUCAAUTT (SEQ ID NO: 48), antisense AUUGAGACAAGAAGGCACCTT (SEQ ID NO: 212) (sugars from the 5' end r19 d2, backbone not given here)", "log2", 0.47],
  ["RAG7-183: saRNA duplex; sense GUCUCAAUUUGCCUUUGACTT (SEQ ID NO: 27), antisense GUCAAAGGCAAAUUGAGACTT (SEQ ID NO: 191) (sugars from the 5' end r19 d2, backbone not given here)", "log2", 0.59],
  ["RAG7-670: saRNA duplex; sense CAGGGCUGUUAUCUGCAUATT (SEQ ID NO: 136), antisense UAUGCAGAUAACAGCCCUGTT (SEQ ID NO: 300) (sugars from the 5' end r19 d2, backbone not given here)", "log2", 0.20],
  ["RAG7-851: saRNA duplex; sense CUUGAAAGGUUCCGAGGGGTT (SEQ ID NO: 163), antisense CCCCUCGGAACCUUUCAAGTT (SEQ ID NO: 327) (sugars from the 5' end r19 d2, backbone not given here)", "log2", 0.14],
  ["RAG7-690: saRNA duplex; sense CCUAUGCAUCCUCAUCUAUTT (SEQ ID NO: 42), antisense AUAGAUGAGGAUGCAUAGGTT (SEQ ID NO: 206) (sugars from the 5' end r19 d2, backbone not given here)", "log2", 0.51],
  ["RAG7-776: saRNA duplex; sense UAGCAUCGAGUGGUAUUUUTT (SEQ ID NO: 56), antisense AAAAUACCACUCGAUGCUATT (SEQ ID NO: 220) (sugars from the 5' end r19 d2, backbone not given here)", "log2", 0.44]
]}

###

# Tested on: LHPP gene
# Assay comment: High-throughput screening of saRNAs targeting LHPP promoter: LHPP mRNA by one-step RT-qPCR in Huh7 cells
# Assay type: cell-based, human
# Condition context: 10 nM saRNA, 72 hours, relative to control (Mock)
d = 2'-deoxy (DNA); r = 2'-OH (RNA)
Endpoint: Fold of changes in relative LHPP mRNA expression level (log2)

{"columns": ["Substance", "Unit annotation", "Reported result"],
 "data": [
  ["RAG7-126: saRNA duplex; sense GUCCGCUGAUCUCCUGGGATT (SEQ ID NO: 45), antisense UCCCAGGAGAUCAGCGGACTT (SEQ ID NO: 209) (sugars from the 5' end r19 d2, backbone not given here)", "log2", 0.48],
  ["RAG7-120: saRNA duplex; sense UGAUCUCCUGGGAAGAAAGTT (SEQ ID NO: 141), antisense CUUUCUUCCCAGGAGAUCATT (SEQ ID NO: 305) (sugars from the 5' end r19 d2, backbone not given here)", "log2", 0.19]
]}

###

# Tested on: LHPP gene
# Assay comment: High-throughput screening of saRNAs targeting LHPP promoter: LHPP mRNA by one-step RT-qPCR in Huh7 cells
# Type: cell-based, human
# Condition context: 10 nM saRNA, 72 hours, relative to control (Mock)
d = 2'-deoxy (DNA); r = 2'-OH (RNA)
Examples of substances with documented Fold of changes in relative LHPP mRNA expression level (log2) follow.
Endpoint: Fold of changes in relative LHPP mRNA expression level (log2)

{"columns": ["Substance", "Reported result"],
 "data": [
  ["RAG7-778: saRNA duplex; sense UGUAGCAUCGAGUGGUAUUTT (SEQ ID NO: 70), antisense AAUACCACUCGAUGCUACATT (SEQ ID NO: 234) (sugars from the 5' end r19 d2, backbone not given here)", 0.37],
  ["RAG7-142: saRNA duplex; sense GCUUUUCCUGCUCUUUGUCTT (SEQ ID NO: 164), antisense GACAAAGAGCAGGAAAAGCTT (SEQ ID NO: 328) (sugars from the 5' end r19 d2, backbone not given here)", 0.14],
  ["RAG7-886: saRNA duplex; sense ACCAGAAGUAAAGUGUUCUTT (SEQ ID NO: 25), antisense AGAACACUUUACUUCUGGUTT (SEQ ID NO: 189) (sugars from the 5' end r19 d2, backbone not given here)", 0.60],
  ["RAG7-109: saRNA duplex; sense GAAGAAAGCUUCCGAAAAGTT (SEQ ID NO: 90), antisense CUUUUCGGAAGCUUUCUUCTT (SEQ ID NO: 254) (sugars from the 5' end r19 d2, backbone not given here)", 0.31]
]}

###

# Tested on: LHPP gene
# Assay comment: High-throughput screening of saRNAs targeting LHPP promoter: LHPP mRNA by one-step RT-qPCR in Huh7 cells
# Type: cell-based, human
# Condition context: 10 nM saRNA, 72 hours, relative to control (Mock)
d = 2'-deoxy (DNA); r = 2'-OH (RNA)
Endpoint: Fold of changes in relative LHPP mRNA expression level (log2)

{"columns": ["Substance", "Reported result"],
 "data": [
  ["RAG7-687: saRNA duplex; sense AUGCAUCCUCAUCUAUGCATT (SEQ ID NO: 162), antisense UGCAUAGAUGAGGAUGCAUTT (SEQ ID NO: 326) (sugars from the 5' end r19 d2, backbone not given here)", 0.14],
  ["RAG7-191: saRNA duplex; sense GCCUUCUUGUCUCAAUUUGTT (SEQ ID NO: 88), antisense CAAAUUGAGACAAGAAGGCTT (SEQ ID NO: 252) (sugars from the 5' end r19 d2, backbone not given here)", 0.32],
  ["RAG7-829: saRNA duplex; sense UUGAGGAAACUCCUCCCUUTT (SEQ ID NO: 29), antisense AAGGGAGGAGUUUCCUCAATT (SEQ ID NO: 193) (sugars from the 5' end r19 d2, backbone not given here)", 0.59],
  ["RAG7-179: saRNA duplex; sense CAAUUUGCCUUUGACCUUUTT (SEQ ID NO: 39), antisense AAAGGUCAAAGGCAAAUUGTT (SEQ ID NO: 203) (sugars from the 5' end r19 d2, backbone not given here)", 0.53],
  ["RAG7-165: saRNA duplex; sense CCUUUCUUAGGGACUUGUUTT (SEQ ID NO: 152), antisense AACAAGUCCCUAAGAAAGGTT (SEQ ID NO: 316) (sugars from the 5' end r19 d2, backbone not given here)", 0.16],
  ["RAG7-899: saRNA duplex; sense AAAGCUAUGUUGGACCAGATT (SEQ ID NO: 84), antisense UCUGGUCCAACAUAGCUUUTT (SEQ ID NO: 248) (sugars from the 5' end r19 d2, backbone not given here)", 0.33],
  ["RAG7-707: saRNA duplex; sense UUCUUCUCAGCCCAGGUCCTT (SEQ ID NO: 8), antisense GGACCUGGGCUGAGAAGAATT (SEQ ID NO: 172) (sugars from the 5' end r19 d2, backbone not given here)", 0.78],
  ["RAG7-96: saRNA duplex; sense GAAAAGGACACCGUUUCAGTT (SEQ ID NO: 105), antisense CUGAAACGGUGUCCUUUUCTT (SEQ ID NO: 269) (sugars from the 5' end r19 d2, backbone not given here)", 0.27],
  ["RAG7-138: saRNA duplex; sense UUCCUGCUCUUUGUCCGCUTT (SEQ ID NO: 53), antisense AGCGGACAAAGAGCAGGAATT (SEQ ID NO: 217) (sugars from the 5' end r19 d2, backbone not given here)", 0.45],
  ["RAG7-708: saRNA duplex; sense UUUCUUCUCAGCCCAGGUCTT (SEQ ID NO: 106), antisense GACCUGGGCUGAGAAGAAATT (SEQ ID NO: 270) (sugars from the 5' end r19 d2, backbone not given here)", 0.27]
]}
